Reported IC50 is given for each of the following compounds.
Test system: HFL-1 cells
Test: IL8 assay in the presence of Human Serum Albumin
Assay type: cell-based
Details: HFL1, S1P (5 μM) induced IL-8, HFL-1 cells, with 2% HSA, read-out: HSA IL8 EC50
Supply the numeric figure in nM, leaving out any unit text.

1. CCOc1nc(C(F)(F)F)cc(NC(=O)NCc2cc(C)c(-c3cn(C)nc3C(F)(F)F)nn2)c1CC
9950

Query IC50 for "Cc1cc(CNC(=O)Nc2cc(N3CC(F)(F)C3)nc(C(F)(F)F)c2)nnc1-c1cn(C)nc1C(F)(F)F"
42.4

Query IC50 for "CCOc1cc(NC(=O)NCc2cc(C)c(N3C[C@@H](C)O[C@@H](C)C3)nn2)cc(C)n1"
2200

# credit: patent US20190388421A1
